system-under-test: PEG-3 (UniProt Q6IN02)
Sequence (Q6IN02 whole entry, looked up): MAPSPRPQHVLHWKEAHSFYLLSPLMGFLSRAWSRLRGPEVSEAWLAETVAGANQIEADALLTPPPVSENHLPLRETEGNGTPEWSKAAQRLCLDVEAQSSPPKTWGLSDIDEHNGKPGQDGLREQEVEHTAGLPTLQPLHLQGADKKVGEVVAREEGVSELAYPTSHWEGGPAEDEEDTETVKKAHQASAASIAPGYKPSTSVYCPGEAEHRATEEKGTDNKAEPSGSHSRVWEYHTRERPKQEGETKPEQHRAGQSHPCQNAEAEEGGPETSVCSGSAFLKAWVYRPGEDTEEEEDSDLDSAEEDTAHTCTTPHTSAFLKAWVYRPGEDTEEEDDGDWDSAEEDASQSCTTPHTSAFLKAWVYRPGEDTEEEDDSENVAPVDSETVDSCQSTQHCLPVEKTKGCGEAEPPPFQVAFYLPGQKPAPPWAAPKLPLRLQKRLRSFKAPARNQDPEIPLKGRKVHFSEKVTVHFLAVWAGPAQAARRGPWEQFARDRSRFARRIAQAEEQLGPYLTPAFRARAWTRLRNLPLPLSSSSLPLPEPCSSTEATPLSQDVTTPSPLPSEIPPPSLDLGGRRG
test-description: Peg3 promoter luciferase inhibitors, potency, dose response, cell-based, HeLa, CREF/GAPDH counter-screen panel (AID 624167)
condition-notes: HeLa PEG-Prom luciferase reporter, overnight, CREF/GAPDH counter-screens, mean of runs
Active and inactive are the calls of the source.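 Rule for the calls: active = mean IC50 for reducing PEG3 promoter reporter signal at or below a set limit, with IC50 above the limit in both counter screens; inactive = the rest, including counter screen hits.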
Classes used: active, inactive

>>> label_value("O=C1NC2C(=CC(O)C(O)C2O)c2cc3c(c(O)c21)OCO3 (stereo unspecified)")
"active"
>>> label_value("CS(=O)(=O)Nc1cccc(NC(=O)C2Cc3c(-c4ccccc4)ccnc3O2)c1 (stereo unspecified)")
"active"
>>> label_value("COc1ccc(CC(N)c2csc(NC(=O)Nc3ccccc3C(C)(C)C)n2)cc1 (stereo unspecified)")
"inactive"
>>> label_value("CN(C)CC1CCC/C(=C\\c2ccc(OC(=O)c3ccc(Cl)cc3)cc2)C1=O (stereo unspecified)")
"active"
>>> label_value("COc1ccccc1CNC(=O)c1c(N)n(CCCN2CCOCC2)c2nc3ccccc3nc12")
"active"
>>> label_value("CCCn1c(=N)n(CC(=O)c2ccc(Cl)cc2)c2ccccc21")
"inactive"
>>> label_value("Cc1nc2cc(-c3ccccc3)sc2c(=O)n1N")
"active"
>>> label_value("COc1ccc(N(Cc2cc3cc(OC)ccc3[nH]c2=O)S(=O)(=O)c2ccc(NC(C)=O)cc2)cc1")
"active"
>>> label_value("CCN(CCO)c1ccc(N=Nc2cc(C)[nH]n2)cc1")
"active"
>>> label_value("CN(C)CCNc1ccc2ncn3c4ccc(O)cc4c(=O)c1c23")
"inactive"
>>> label_value("C(=Cc1cnc2ccccc2n1)c1ccc2c(c1)OCO2")
"active"
>>> label_value("COc1ccc(C(c2nnnn2-c2c(C)cccc2C)N2CCC(n3c(=O)[nH]c4ccccc43)CC2)cc1 (stereo unspecified)")
"active"
>>> label_value("CN=c1scc(-c2ccccc2F)n1/N=C/c1ccc[nH]1")
"inactive"
>>> label_value("COc1ccc(N(C(=O)CCl)C(C(=O)NC2CCCCC2)c2cccnc2)cc1 (stereo unspecified)")
"active"
>>> label_value("O=C1C(Cl)=C(Nc2ccc(O)cc2)C(=O)c2ccccc21")
"active"
>>> label_value("O=C(Nc1cccc(S(=O)(=O)N2CCOCC2)c1)c1ccc2c(=O)n3c(nc2c1)CCCCC3")
"inactive"
>>> label_value("O=C1/C(=C\\c2cccc(O)c2O)SC(=S)N1Cc1ccccc1")
"inactive"
>>> label_value("COc1ccccc1C(=O)Nc1nc2ccccc2[nH]1")
"active"
>>> label_value("Cc1cc(Sc2ncnc(N)c2[N+](=O)[O-])ncn1")
"active"
>>> label_value("O=C(C[n+]1ccc(-c2cc(C(=O)Nc3cccc(C(F)(F)F)c3)c3ccccc3n2)cc1)c1cccc([N+](=O)[O-])c1")
"active"
>>> label_value("CC1=C(CC[C@@H](C)CO)OC2CC3C4CCC5CC(O)CCC5(C)C4CC(=O)C3(C)C12 (stereo partly specified)")
"inactive"

Data origin, for the record: PubChem BioAssay AID624167
